assay_procedure: chemical genetic growth profiling, strain panel (AID 1159580);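 note: tested at 20 µM; growth read once vehicle control cultures reached saturation at 30 °C; 1 = growth at the plate median or of vehicle wells; lower values mean less growth of the strain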
stated_conditions: S. cerevisiae deletion strains, growth OD, locus YJL154C, strain vps35, active compounds read low
The whole screen tested about 5,500 compounds, of which about 2,000 (36%) were called active. Inconclusive results (about 18%) are left out. Some of the results follow.
assay_readout: normalized growth
Answers are plain numbers.

Hi team, please reply with normalized growth for each item in this list.
1. CCCN(CCC)S(=O)(=O)c1ccc(C(=O)O)cc1
2. OC[C@H]1O[C@@H](O[C@H]2[C@H](O)[C@@H](O)[C@@H](O)O[C@@H]2CO)[C@H](O)[C@@H](O)[C@@H]1O
3. CC(C)NCC(O)COc1ccc(COCCOC(C)C)cc1 (stereo not given)
4. COc1ccc(C2Sc3ccccc3N(CCN(C)C)C(=O)C2OC(C)=O)cc1 (stereo not given)
5. CN(C)CCCN1c2ccccc2CCc2ccc(Cl)cc21
6. NCC(=O)c1ccccc1

-- reply
1: 0.99; 2: 0.991; 3: 1.01; 4: 0.982; 5: 1; 6: 1

// batch mode: one normalized growth value per listed entry
1. CC(=O)c1cc(CC=C(C)C)c(O)c(CC=C(C)C)c1
2. NC(=O)NC(=O)Cc1ccccc1
3. CN[C@@H]1[C@H](O)[C@H](NC)[C@H]2O[C@@]3(O)C(=O)C[C@@H](C)O[C@H]3O[C@@H]2[C@H]1O
4. O=C(OOC(=O)c1ccccc1)c1ccccc1
5. CC(C)=CCc1c2c(c3occ(-c4ccc(O)c(O)c4)c(=O)c3c1O)C=CC(C)(C)O2
6. OC[C@H]1O[C@@H](O[C@@H]2[C@@H](CO)O[C@](O)(CO)[C@H]2O)[C@H](O)[C@@H](O)[C@H]1O
7. CN(C)CCCN1c2ccccc2CCc2ccccc21
8. NC1=NCCN1CC(=O)O

-- reply
1: 1.02; 2: 0.984; 3: 0.991; 4: 0.984; 5: 1; 6: 1.02; 7: 1.02; 8: 1.02

Batch request: normalized growth for each of the following compounds.
1. O=C(O)c1ccc(S(=O)(=O)N(Cl)Cl)cc1
2. CC(=O)Oc1ccc(O)cc1
3. CC(C)=CCc1c2c(c3occ(-c4ccc(O)cc4)c(=O)c3c1O)C=CC(C)(C)O2
4. OC[C@H]1O[C@@](CO)(O[C@@H]2O[C@H](CO)[C@@H](O)[C@H](O)[C@H]2O)[C@@H](O[C@@H]2O[C@H](CO)[C@@H](O)[C@H](O)[C@H]2O)[C@@H]1O
5. CNNC
6. CCOC(=O)[C@H](CCc1ccccc1)N[C@@H](C)C(=O)N1CCC[C@H]1C(=O)O
7. O=C(NCO)c1cccnc1
8. Oc1cccc(O)c1

-- reply
0.985
0.985
1.01
1.01
1.02
0.99
1
0.977

---

assay_procedure: chemical genetic growth profiling, strain panel (AID 1159580)
stated_conditions: S. cerevisiae deletion strains, growth OD, locus YAL021C, strain ccr4, active compounds read low
Hit rate of the full screen: of about 5,500 compounds, about 2,000 (36%) were called active. Another 18% or so got no clear call; they are omitted. Some of the results follow.
Answer each item with its documented normalized growth.
Numbers only.

1. CC(=O)O[C@@H]1C=C[C@@]2(C)C(C[C@@H](OC(C)=O)[C@@]3(C)C4=CC(=O)O[C@@H](c5ccoc5)[C@]4(C)CCC23)C1(C)C (stereo not given in full) | 1
2. CC(=O)c1cc(CC=C(C)C)c(O)c(CC=C(C)C)c1 | 1
3. CC(=O)c1ccc(O)c(CC=C(C)C)c1 | 1
4. COc1ccc(C2Sc3ccccc3N(CCN(C)C)C(=O)C2OC(C)=O)cc1 (stereo not given) | 0.985

-- ask State its normalized growth for this compound: CC(=O)O[C@@H]1CC2C(C)(C)[C@H](O)C=C[C@]2(C)C2CC[C@]3(C)C(=CC(=O)O[C@H]3c3ccoc3)[C@@]21C (stereo not given in full)
-- reply 0.971

---

assay_procedure: chemical genetic growth profiling, strain panel (AID 1159580);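 note: tested at 20 µM; growth read once vehicle control cultures reached saturation at 30 °C; 1 = growth at the plate median or of vehicle wells; lower values mean less growth of the strain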
stated_conditions: S. cerevisiae deletion strains, growth OD, locus YLR418C, strain cdc73, active compounds read low
Screen size: about 5,500 compounds; about 2,000 (36%) were called active. About 18% were inconclusive and are not listed. The list shows a part of the results.
assay_readout: normalized growth

Some solved entries appear below for comparison.
1. CCOC(=O)[C@H](CCc1ccccc1)N[C@@H](C)C(=O)N1CCC[C@H]1C(=O)O | 1.01 (inactive)
2. C=C(C)C1CCC(C)(O)C2CC3OC3(C)C2C1 (stereo unspecified) | 0.992 (inactive)
3. O=P1(N(CCCl)CCCl)NCCCO1 (stereo unspecified) | 1.1 (inactive)

Batch: normalized growth for all items listed.
1. CC12CCC3C(CC3(C)C)C(C)(CCC1=O)O2 (stereo unspecified)
2. NNCc1cccc(O)c1
3. CO[C@H]1CC(O[C@@H]2/C(C)=C/C[C@@H]3C[C@@H](C[C@]4(CC[C@H](C)[C@@H](C5CCCCC5)O4)O3)OC(=O)[C@@H]3C=C(C)/C(=N\O)[C@H]4OC/C(=C\C=C\[C@@H]2C)[C@]43O)O[C@@H](C)C1O (stereo partly specified)

-- reply
1: 1.07 (inactive); 2: 1.03 (inactive); 3: 0.936 (inactive)

---

assay_procedure: chemical genetic growth profiling, strain panel (AID 1159580);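 note: tested at 20 µM; growth read once vehicle control cultures reached saturation at 30 °C; 1 = growth at the plate median or of vehicle wells; lower values mean less growth of the strain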
stated_conditions: S. cerevisiae deletion strains, growth OD, locus YDL192W, strain arf1, active compounds read low
The campaign covered roughly 5,500 compounds. About 2,000 (36%) were called active. Inconclusive results (about 18%) are left out. This is one part of the list.
Exercise: state measured normalized growth for each of the compounds provided.

1. COC(=O)c1c(OC)cc2c(c1C)Oc1c(Cl)c(OC(C)=O)c(Cl)c(C)c1C(=O)O2 | 1.01 (inactive)
2. CC1(C)CC2C1CC[C@]1(CBr)CCC3C(CC(=O)O)C(=O)O[C@@]32C1 (some centres undefined) | 0.976 (inactive)
3. C/C1=C/CC(C)(C)/C=C/C/C(C)=C/CC1 | 0.988 (inactive)

Below is a list of compounds. For each, state its recorded normalized growth.
1. CC(C)=CCCC(C)[C@@H]1CC[C@]2(C)C3=C(CC[C@@]12C)C1(C)CC[C@H](O)C(C)(C)C1CC3 (some centres undefined)
2. CN[C@@H]1[C@H](O)[C@H](NC)[C@H]2O[C@@]3(O)C(=O)C[C@@H](C)O[C@H]3O[C@@H]2[C@H]1O
3. CCN1CCN(C(=O)NC(C(=O)N[C@@H]2C(=O)N3[C@@H]2SC(C)(C)[C@@H]3C(=O)O)c2ccccc2)C(=O)C1=O (some centres undefined)
4. C/C1=C\CC(C)(C)/C=C/CC2(C)OC2CC1 (centres undefined)
5. CS(=O)(=O)c1ccc([C@@H](O)[C@@H](CO)NC(=O)C(Cl)Cl)cc1

-- reply
1.02 (inactive)
1.02 (inactive)
1.01 (inactive)
1.01 (inactive)
0.981 (inactive)

Please look at the items below and tell me normalized growth for each one, in order.
1. CC(=O)O[C@H]1CCC2(C)C3=C(CCC2C1(C)C)[C@@]1(C)CC[C@@H](C(C)CCC=C(C)C)[C@]1(C)CC3 (some centres undefined)
2. COc1cc(C/C=C/c2ccccc2)c(OC)cc1O
3. Cc1c(C)c2c(c(C)c1O)CCC(C)(CCCC(C)CCCC(C)CCCC(C)C)O2 (centres undefined)
4. CC(C)=CCCC(C)C1CC[C@@]2(C)C3=C(CC[C@]12C)C1(C)CC[C@H](O)C(C)(C)C1CC3 (some centres undefined)
5. COc1c(C)c2c(c(C)c1Cl)Oc1c(Cl)c(OC)c(Cl)c(C)c1C(=O)O2
6. CC12CCC(O)CC1CCC1C2[C@H](O)CC2(C)C(C3=CC(=O)OC3)CCC12O (some centres undefined)

-- reply
1. 1.03 (inactive)
2. 0.982 (inactive)
3. 1.02 (inactive)
4. 0.977 (inactive)
5. 1.02 (inactive)
6. 1.01 (inactive)

---

assay_procedure: chemical genetic growth profiling, strain panel (AID 1159580);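 note: tested at 20 µM; growth read once vehicle control cultures reached saturation at 30 °C; 1 = growth at the plate median or of vehicle wells; lower values mean less growth of the strain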
stated_conditions: S. cerevisiae deletion strains, growth OD, locus YBR023C, strain chs3, active compounds read low
The whole screen tested about 5,500 compounds, of which about 2,000 (36%) were called active. Not shown: some 18% with an inconclusive outcome. This is one part of the list.
For each record, write down the corresponding normalized growth.
One number for each entry.

These solved cases illustrate the format of a correct answer.
1) CC(=O)O[C@@H]1C=C[C@@]2(C)C(C[C@@H](OC(C)=O)[C@@]3(C)C4=CC(=O)O[C@@H](c5ccoc5)[C@]4(C)CCC23)C1(C)C (some centres undefined) | 1.01
2) CC(=O)O[C@@H]1CC2C(C)(C)C(=O)C=C[C@]2(C)C2CC[C@]3(C)C(=CC(=O)O[C@H]3c3ccoc3)[C@@]21C (some centres undefined) | 1
3) CCCOc1ccc2nc(NC(=O)OC)[nH]c2c1 | 1.02
4) COC(=O)c1c(OC)cc2c(c1C)Oc1c(Cl)c(O)c(Cl)c(C)c1C(=O)O2 | 0.988
5) CC(C)CCCC(C)[C@H]1CCC2C3C(=O)C=C4C[C@@H](O)CC[C@]4(C)C3CC[C@@]21C (some centres undefined) | 1.01
6) CN(C)CCCN1c2ccccc2Sc2ccccc21 | 1
7) CN[C@@H]1[C@H](O)[C@H](NC)[C@H]2O[C@@]3(O)C(=O)C[C@@H](C)O[C@H]3O[C@@H]2[C@H]1O | 1
8) CC(C)NCC(O)COc1ccc(COCCOC(C)C)cc1 (centres undefined) | 0.998

Would you be so kind as to report normalized growth for each listed record?
1. CC(=O)O[C@@H]1CC2C(C)(C)[C@H](O)C=C[C@]2(C)C2CC[C@]3(C)C(=CC(=O)O[C@H]3c3ccoc3)[C@@]21C (some centres undefined)
2. CN(C)C(=O)Oc1cccc([N+](C)(C)C)c1

-- reply
0.993
0.988

# batch: return normalized growth for each of the 8 compounds below
1. CN1CCN(C(=O)OC2c3nccnc3C(=O)N2c2ccc(Cl)cn2)CC1 (centres undefined)
2. CC(=O)O[C@H]1CC[C@@]2(C)C(=CC(=O)C3C4CCC(C(C)CCCC(C)C)[C@@]4(C)CCC32)C1 (some centres undefined)
3. CN(C)CCCN1c2ccccc2CCc2ccccc21
4. CC(C)(C)NC[C@H](O)c1ccc(O)c(CO)c1
5. CC(=O)O[C@H]1CC[C@@]2(C)C(C[C@@H](OC(C)=O)[C@@]3(C)C4=CC(=O)O[C@@H](c5ccoc5)[C@]4(C)CCC23)C1(C)C (some centres undefined)
6. CCCSc1ccc2nc(NC(=O)OC)[nH]c2c1
7. CN(C)[C@@H]1C(=O)C(C(N)=O)=C(O)[C@@]2(O)C(=O)C3=C(O)c4c(O)ccc(Cl)c4[C@@H](O)[C@H]3C[C@@H]12
8. CN(C)CCCN1c2ccccc2CCc2ccc(Cl)cc21

-- reply
0.991
0.985
1
1.02
0.996
1.01
0.982
1.01

-- ask State its normalized growth for this compound: CCN(CC)CCOC(=O)C1(C2CCCCC2)CCCCC1
-- reply 0.972

// data source = PubChem BioAssay AID1159580
